Reference source: the RNAGym collection of RNA variant scans (doi:10.1038/s41586-018-0170-7)

B1: tRNA (parent)
chain: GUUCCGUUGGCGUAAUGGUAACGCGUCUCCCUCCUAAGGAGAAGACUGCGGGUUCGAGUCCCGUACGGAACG

Variants of: B1
method-summary: yeast fitness, log relative to wild type (ln ratio); higher = fitter; tRNA-Arg(CCU), competitive growth, 37 C, 1 M NaCl
Lab note: anything with yeast fitness (ln) at or over -0.3 counts as 1; the rest go in -1.

- variant-id: "G1A G6A A43C A69G A70U C71U"
  group-label: -1
- variant-id: "U2G G6U C27U C46U C66A A69G A70U C71U"
  group-label: -1
- variant-id: "G1A C66U A70G C71U"
  group-label: 1
- variant-id: "U2G C27U A43C C46U A69G"
  group-label: 1
- variant-id: "G1A U2G C27U C66U A69G A70G"
  group-label: 1
- variant-id: "G6A A43C C46U C66A A70G"
  group-label: 1
- variant-id: "U2C G6U C46U C66U A69G A70U C71U"
  group-label: 1
- variant-id: "C46U C66A"
  group-label: 1
- variant-id: "G1A U2G C66U C71U"
  group-label: 1
